Test system: HL-1
assay-overview: relative cell viability (CellTiter-Glo) vs DMSO control (% of DMSO control); higher = more viable cells
condition-summary: oxygen condition: hypoxia 48 h (1% O2) + reoxygenation 24 h; 1000 nM
Where a name gives a salt, the structure may show the parent alone.
result-type: relative cell viability
One number for each entry.

Recorded relative cell viability, per entry:
compound="Cc1cccc(CN2CCN(C(c3ccccc3)c3ccc(Cl)cc3)CC2)c1 (stereo not drawn) [Meclizine 2HCl]" result_type="relative cell viability" value_observed=98.5
compound="O=C(O)CCCN1CCC(O[C@@H](c2ccc(Cl)cc2)c2ccccn2)CC1 [Bepotastine Besilate]" result_type="relative cell viability" value_observed=111
compound=CNC(=O)c1ccc(N2C(=S)N(c3ccc(C#N)c(C(F)(F)F)c3)C(=O)C2(C)C)cc1F result_type="relative cell viability" value_observed=51.5
compound=COc1ccc2[nH]c([S@@+]([O-])Cc3ncc(C)c(OC)c3C)nc2c1 result_type="relative cell viability" value_observed=114
compound=Nc1nnc(-c2cccc(Cl)c2Cl)c(N)n1 result_type="relative cell viability" value_observed=108
compound="CCC(=O)O[C@]1(C(=O)CCl)[C@@H](C)C[C@H]2[C@@H]3CCC4=CC(=O)C=C[C@]4(C)[C@@]3(F)[C@@H](O)C[C@@]21C [Clobetasol propionate]" result_type="relative cell viability" value_observed=94.5
compound=C[C@](N)(Cc1ccc(O)c(O)c1)C(=O)O result_type="relative cell viability" value_observed=104
compound=C=C1/C(=C\C=C2/CCC[C@]3(C)[C@@H]([C@H](C)CCCC(C)C)CC[C@@H]23)C[C@@H](O)C[C@@H]1O result_type="relative cell viability" value_observed=118

Batch lookup, relative cell viability per entry.
1. COc1ccc(C[C@@H]2c3cc(OC)c(OC)cc3CC[N@+]2(C)CCC(=O)OCCCCCOC(=O)CC[N@@+]2(C)CCc3cc(OC)c(OC)cc3[C@H]2Cc2ccc(OC)c(OC)c2)cc1OC [Cisatracurium besylate]
2. O=C1CCc2ccc(OCCCCN3CCN(c4cccc(Cl)c4Cl)CC3)cc2N1
3. Cn1ccnc1S
4. CN(C)c1nc(N(C)C)nc(N(C)C)n1
5. CC1CCc2cc(F)cc3c(=O)c(C(=O)O)cn1c23 (stereo not drawn)

RESULT:
107
97
105
115
117

Batch lookup, relative cell viability per entry.
1. O=C1CN2Cc3c(ccc(Cl)c3Cl)N=C2N1 [Anagrelide HCl]
2. c1cnc2cc3c(cc2n1)[C@@H]1CNC[C@H]3C1 [Varenicline tartrate]
3. NC(=O)N1c2ccccc2CC(=O)c2ccccc21 [Oxcarbazepine]
4. CCCCOc1cc(C(=O)OCCN(CC)CC)ccc1N [Oxybuprocaine HCl]
5. CCC1(c2ccccc2)C(=O)NCNC1=O
6. OCCOCCN1CCN(C(c2ccccc2)c2ccc(Cl)cc2)CC1 (stereo not drawn) [Hydroxyzine 2HCl]
7. C#C[C@]1(O)CC[C@H]2[C@@H]3CCC4=CC(=O)CC[C@@H]4[C@H]3CC[C@@]21CC
8. CC(C)C[C@H](NC(=O)[C@H](Cc1ccccc1)NC(=O)c1cnccn1)B(O)O

RESULT:
[97.5, 110, 116, 108, 110, 109, 104, 8.52]

Batch lookup, relative cell viability per entry.
1. CO[C@@H]1[C@@H](OC(N)=O)[C@@H](O)[C@H](Oc2ccc3c(O)c(NC(=O)c4ccc(O)c(CC=C(C)C)c4)c(=O)oc3c2C)OC1(C)C [Novobiocin sodium]
2. O=C(O)c1ccc(NC(=O)[C@H](Cc2ccc(O)cc2)NC(=O)c2ccccc2)cc1 [Bentiromide]
3. CN1CCN(C2=Nc3ccccc3Oc3ccc(Cl)cc32)CC1 [Loxapine Succinate]
4. CN(C)/N=N/c1[nH]cnc1C(N)=O
5. CC(=O)Oc1cc2c(s1)CCN(C(C(=O)C1CC1)c1ccccc1F)C2 (stereo not drawn)
6. COc1ccc2cccc(CCNC(C)=O)c2c1

RESULT:
102
101
105
110
106
84.5

QUERY: Item OC(CCN1CCCCC1)(c1ccccc1)C1CC2C=CC1C2 (stereo not drawn) [Biperiden HCl] with HL-1 - relative cell viability?
RESULT: 93.9
